I'd appreciate it if you could supply microsomal CLint values for the items below.
assay: in vitro; conditions: human, microsomes
Answer in µL/min/mg, number only, no unit symbol.

Given the molecule `CO/N=C(\C)c1ccc(-n2ccnc2)c(NC(=O)c2sc(-c3ccccc3)nc2C)c1` , what is its reported microsomal CLint?
18

Another molecule to check: `CO/N=C(\C)c1ccc(-n2ccnc2)c(NC(=O)c2cnn(-c3ccccn3)c2)c1`
16

One more molecule: `CCS(=O)(=O)N(Cc1cccnc1)c1cncc(-c2nc3ccccc3s2)c1`
559

Now this one: CCN(c1ccccc1)S(=O)(=O)c1ccc(Cl)c(NC(=O)CNC2CCCN(C)C2)c1.O=CO (configuration not stated)
89

Next entry: `O=C(C1CC1)N(Cc1cccnc1)c1cc(F)cc(-c2nc3ccccc3s2)c1`
1320

# iterate: `CCN(c1ccccc1)S(=O)(=O)c1ccc(NC(=O)CN(C)C2CCN(C)CC2)c(Cl)c1.Cl`
169

----------
test: in vitro; details: human, microsomes, EH
quantity_kind: hepatic extraction ratio
Write no unit; give the number alone.

Given `CCN(Cc1cccnc1)c1cncc(-c2nc3ccccc3s2)c1` , state its recorded hepatic extraction ratio.
0.953

Follow-up entry: `CS(=O)(=O)N(Cc1cnc[nH]1)c1ccc(-c2nc3ccccc3s2)cc1`
0.68

Next up: `CN(C)S(=O)(=O)c1ccc(-n2ccnc2)c(NC(=O)c2cnc(-c3ccccc3)s2)c1`
0.75

`CCN(Cc1cnc[nH]1)c1cc(F)cc(-c2nc3ccccc3s2)c1` ?
0.874

Item: `Cc1ccc(-n2ccnc2)c(NC(=O)c2cnc(-c3ccccc3)nc2)c1`
0.78

What about this compound? `CO/N=C(\C)c1ccc(-n2ccnc2)c(NC(=O)c2cncc(-c3ccccc3)n2)c1`
0.82

Please answer likewise for `CCN(Cc1cccnc1)c1cc(F)cc(-c2nc3ccccc3s2)c1`
0.898

Now the same for `CS(=O)(=O)N(Cc1cccnc1)c1ccc(-c2ccc(F)cc2)cc1F`
0.916

What about CCN(c1ccccc1)S(=O)(=O)c1ccc(Cl)c(NC(=O)CNC2CCCN(C)C2)c1.O=CO (centres undefined) ?
0.815

Same again, this time with `O=c1c2ccccc2nc(-c2ccc(-c3ccccc3)cc2)n1Cc1cccnc1`
0.73

----------
test: DNDI: Solubility in phosphate buffer at pH 6.5 determined by nephelometry; conditions: phosphate buffer, pH 6.5, Kinetic
What solubility kinetic was measured for each of the following?

Please report the recorded solubility kinetic for `CCN(Cc1cccnc1)c1ccc(-c2ccc(F)cc2)cc1F` .
< 0.32 µg/mL

Next compound up: `CCN(Cc1cccnc1)c1cccc(-c2nc3ccccc3s2)c1`
< 1.6 µg/mL

Try this compound next: `CCN(Cc1cccnc1)c1cc(F)cc(-c2nc3ccccc3s2)c1`
< 0.36 µg/mL

Param item: `CC(C)Cc1ccc(-n2ccnc2)c(NC(=O)c2cnc(-c3ccccc3)s2)c1`
< 1.6 µg/mL

Could you do the same for `CCN(c1ccccc1)S(=O)(=O)c1ccc(NC(=O)CN(C)C2CCN(C)CC2)c(Cl)c1.Cl` , please?
> 100 µg/mL

Another compound: `CO/N=C(\C)c1ccc(-n2ccnc2)c(NC(=O)c2cnc(-c3ccccc3)nc2)c1`
< 1.6 µg/mL

----------
Give measured half-life for each item. Keep answers brief.
assay: in vitro; conditions: human, microsomes, t (1 / 2)
Quick note: give the figure in min, leave out the unit.

Can you look up the measured half-life of `CCN(CC)S(=O)(=O)c1ccc(-n2ccnc2)c(NC(=O)c2cnc(-c3ccccc3)nc2)c1` for me?
10

Try this compound too: `O=C(C1CC1)N(Cc1cccnc1)c1cc(F)cc(-c2nc3ccccc3s2)c1`
1.3

Moving on to `CS(=O)(=O)N(Cc1cccnc1)c1ccc(-c2ccc(F)cc2)cc1F`
7.9

What do you get for `CO/N=C(\C)c1ccc(-n2ccnc2)c(NC(=O)c2sc(-c3ccccc3)nc2C)c1` ?
97

Moving on to the next compound: `CCN(c1ccccc1)S(=O)(=O)c1ccc(Cl)c(NC(=O)c2ccc3c(c2)CCNC3)c1`
5.2

Param item: `CO/N=C(\C)c1ccc(-n2ccnc2)c(NC(=O)c2cnc(-c3ccccc3)cn2)c1`
58

Also check `CO/N=C(\C)c1ccc(-n2ccnc2)c(NC(=O)c2cnc(-c3ccccc3)nc2)c1`
73

And the next one, `CS(=O)(=O)N(Cc1c[nH]cn1)c1ccc(-c2ccc(F)cc2)cc1F` ?
61

Would you mind doing `CO/N=C(\C)c1ccc(-n2ccnc2)c(NC(=O)c2ccc(-c3ccccc3)nc2)c1` as well?
66

What do you get for `O=C(C1CC1)N(Cc1cccnc1)c1cccc(-c2nc3ccccc3s2)c1` ?
5

Further, for `CC(=O)N(Cc1cccnc1)c1ccc(-c2nc3ccccc3s2)cc1` ?
17.6

What about `CO/N=C(\C)c1ccc(-n2ccnc2)c(NC(=O)c2ccc(-c3ccccc3)cc2)c1` ?
58

Input `CO/N=C(\C)c1ccc(-n2ccnc2)c(NC(=O)c2cncc(-c3ccccc3)n2)c1`
15

----------
test: in vitro; conditions: human, microsomes, EH
Answer each item with its documented hepatic extraction ratio.

Returns the measured hepatic extraction ratio for the input molecule. Input: `CS(=O)(=O)c1ccc(-n2ccnc2)c(NC(=O)c2cnc(-c3ccccc3)nc2)c1`
< 0.28

Note, next up: `CCN(Cc1c[nH]cn1)c1ccc(-c2nc3ccccc3s2)cc1`
< 0.23

Would you mind doing CC(C)N(C)CC(O)COc1ccc2cc(Br)ccc2c1 (centres undefined) as well?
< 0.23

Another: `O=C(NCCc1cnc[nH]1)c1cnc(-c2ccccc2)cn1`
< 0.23
